IC50 listing for selected compounds.
molecular target: human HSP90 alpha protein (N-terminal, amino acids 2 to 236) (Homo sapiens (Human), UniProt P07900)
Numeric answer only, unit nM assumed.

// worked examples, IC50 included
CC(C)c1cc(-c2ccc(C(N)=O)c(N)c2)c2cccc(-n3cnc(-c4cnn(C)c4)c3)c2n1	80
CCc1cc(-c2ccc(C(N)=O)c(N)c2)c2cccc(-n3cnc(-c4cccnc4)c3)c2n1	90
CCNc1cc(-c2nccc3c(-n4cnc(-c5cnn(C)c5)c4)ccnc23)ccc1C(N)=O	740
Cn1cc(-c2cn(-c3cccc4c(-c5ccc(C(N)=O)c(Cl)c5)cc(C(F)(F)F)nc34)cn2)cn1	870
NC(=O)c1ccc(-c2nccc3c(-c4cccnc4)cccc23)cc1NC1CCC(O)CC1 (stereo not drawn)	140

(Q) // returns reported IC50 for input CCc1nc2ncc(-c3cccc4c(-c5ccc(C(N)=O)c(NC6CCC(O)CC6)c5)nccc34)cc2[nH]1 (stereo not drawn)
(A) 390

(Q) CC(C)(C)Nc1cc(-c2nccc3c(-n4cnc(-c5cccnc5)c4)cccc23)ccc1C(N)=O ?
(A) 210

(Q) And for Cn1cc(-c2cn(-c3cccc4c(-c5ccc(C(N)=O)c(NC(C)(C)C)c5)nccc34)cn2)cn1 ?
(A) 140

(Q) Quick one: NC(=O)c1ccc(-c2nccc3c(-c4cnc5ccccc5c4)cccc23)cc1NC1CCC(O)CC1 (stereo not drawn)
(A) 170

(Q) How about CC(C)Nc1cc(-c2nccc3c(-n4cnc(-c5cnn(C)c5)c4)cccc23)ccc1C(N)=O ?
(A) 190

(Q) Thanks! And NC(=O)c1ccc(-c2nccc3c(-n4cnc(-c5ccncc5)c4)cccc23)cc1NC1CCC(O)CC1 (stereo not drawn) ?
(A) 130
